target: VDR (Homo sapiens, UniProt P11473); construct: the receptor expression vector pGal-4-VDR-LBD (10 ng); expressed in transfected cells; host or cells: Caco-2 cells; assay: VDR CTF (Caco-2 cell co-transfection) assay; type: cell-based; conditions: Caco-2 cells, Gal-4-VDR-LBD co-transfection; Table 1
Sequence (P11473 127-423 limits assumed): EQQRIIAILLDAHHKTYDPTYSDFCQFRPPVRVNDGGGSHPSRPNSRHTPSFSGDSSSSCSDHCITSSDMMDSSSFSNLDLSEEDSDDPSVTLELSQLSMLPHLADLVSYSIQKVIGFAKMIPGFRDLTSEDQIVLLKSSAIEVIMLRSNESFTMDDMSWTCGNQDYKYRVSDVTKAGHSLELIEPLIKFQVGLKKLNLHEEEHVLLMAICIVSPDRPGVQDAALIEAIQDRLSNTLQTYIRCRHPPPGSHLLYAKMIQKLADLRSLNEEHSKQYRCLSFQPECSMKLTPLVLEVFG
Known EC50 of a selection of compounds

compound	EC50 / nM
CCC(CC)(c1ccc(OCC(=O)C(C)(C)C)c(C)c1)c1oc(C(=O)N(C)C)cc1C [Ex. 8]	758
CCC(O)(CC)COc1ccc(C(CC)(CC)c2ccc(C(=O)N(C)C)o2)cc1C [Ex 14]	635
CCC(CC)(c1ccc(OCC(O)C(C)(C)C)c(C)c1)c1ccc(C(=O)N(C)C)o1 (racemic) [Ex. 2]	25
CCC(CC)(c1ccc(OCC(O)C(C)(C)C)c(C)c1)c1ccc(C(=O)N(C)C)o1 (single isomer, unassigned) [Ex. 3]	391
CCCc1cc(C(CC)(CC)c2ccc(C(=O)N(C)C)o2)ccc1OCC(O)C(C)(C)C (single isomer, unassigned; enantiomer 1) [Ex. 12]	187
CCc1cc(C(CC)(CC)c2ccc(C(=O)N(C)C)o2)ccc1OCC(O)C(C)(C)C (single isomer, unassigned; enantiomer 2) [Ex. 11]	572
CCc1cc(C(CC)(CC)c2ccc(C(=O)N(C)OC)o2)ccc1OCC(O)C(C)(C)C (single isomer, unassigned; enantiomer 1) [Ex. 13]	572

###

test system: KERtr cells; assay: Keratinocyte proliferation assay; assay type: cell-based, Human; conditions: 72 hr, BrdU incorporation, Table 2, read-out: Kera. Prolif. IC50
Entries and their IC50

molecule	systemUnderTest	resultQualifier	IC50 (nM)
CCC(CC)(c1ccc(OCC(=O)C(C)(C)C)c(C)c1)c1oc(C(=O)N(C)C)cc1C	KERtr cells	>	1000
CCN(CC)C(=O)c1ccc(C(CC)(CC)c2ccc(OCC(=O)C(C)(C)C)c(C)c2)o1	KERtr cells	=	23
CCc1cc(C(CC)(CC)c2ccc(C(=O)N(C)C)o2)ccc1OCC(O)C(C)(C)C (single isomer, unassigned; enantiomer 1) [Ex. 10]	KERtr cells	=	7
CCc1cc(C(CC)(CC)c2ccc(C(=O)N(C)OC)o2)ccc1OCC(O)C(C)(C)C (single isomer, unassigned; enantiomer 1)	KERtr cells	=	18
CCC(CC)(c1ccc(OCC(O)C(C)(C)C)c(C)c1)c1ccc(C(=O)N(C)C)o1 (single isomer, unassigned) [Ex. 3]	KERtr cells	=	1
